metric_name: melting point

Example cases with answers are listed next.
* CS(=O)(=O)n1cc(/C=C(/C(=O)O)c2ccccc2)c2ccccc21 | 181 to 183 °C
* CS(=O)(=O)n1cc(/C=N/NC(=O)c2ccccc2)c2ccccc21 | 114 to 116 °C
* COc1cc(-c2c(C#N)c(N)n(/N=C/c3cn(S(C)(=O)=O)c4ccccc34)c(=O)c2C#N)cc(OC)c1OC | 210 to 212 °C

Consider the record given below.
Reported melting point for COc1cc(CC(=O)Nc2ccc(C(=O)/C=C/c3cn(S(C)(=O)=O)c4ccccc34)cc2)cc(OC)c1OC : what is it?
176 to 178 °C

Just for reference, paper PMC9518246 is where these values come from.
